FYI, the data here is from patent US20070072831A1.

TARGET SYSTEM: HIV integrase (Human immunodeficiency virus type 1 group M subtype B)
Here the recorded IC50 is given for each entry.

Some compounds with recorded IC50:
C[C@H]1c2c(c(O)c3ncccc3c2N(C)S(C)(=O)=O)C(=O)N1Cc1ccc(F)cc1 (single isomer, unassigned)
< 0.06 µM
Nc1c2c(c(O)c3ncccc13)C(=O)N(Cc1ccc(F)cc1)C2=O
0.06 to 1 µM
CN1CCCN(c2c3c(c(O)c4ncccc24)C(=O)N(Cc2ccc(F)cc2)C3)C1=O
< 0.06 µM
O=C1c2c(c(N3CCCS3(=O)=O)c3cccnc3c2O)CN1Cc1ccc(F)cc1
< 0.06 µM
CN(c1c2c(c(O)c3ncccc13)C(=O)N(Cc1ccc(F)cc1)C2)S(=O)(=O)c1ccc(N2CCOCC2)nc1
0.06 to 1 µM

Exercise: What measured IC50 is associated with CN(c1c2c(c(O)c3ncccc13)C(=O)N(Cc1cc(Cl)cc(Cl)c1)C2)S(C)(=O)=O on HIV integrase (Human immunodeficiency virus type 1 group M subtype B)?
Key: 0.06 to 1 µM

Exercise: Input CN(c1c2c(c(O)c3ncccc13)C(=O)N(Cc1ccc(F)cc1)C2)S(=O)(=O)c1cn(C)cn1
Key: < 0.06 µM

Exercise: Input CN1CCCN(c2c3c(c(O)c4ncccc24)C(=O)N(Cc2ccc(F)cc2)C3)S1(=O)=O
Key: < 0.06 µM

Exercise: Input CN(c1c2c(c(O)c3ncccc13)C(=O)N(Cc1ccc(F)cc1Cl)C2)S(C)(=O)=O
Key: < 0.06 µM

Exercise: Input CN(c1c2c(c(O)c3ncccc13)C(=O)N(Cc1ccc(Cl)c(Cl)c1)C2)S(C)(=O)=O
Key: 0.06 to 1 µM

====

Here the recorded IC50 is given for each entry.
TARGET SYSTEM: HIV integrase (Human immunodeficiency virus type 1 group M subtype B)

CN(C)S(=O)(=O)Nc1c2c(c(O)c3ncccc13)C(=O)N(Cc1ccc(F)cc1)C2
60 to 1000 nM
CN(Cc1ccncc1)S(=O)(=O)N(C)c1c2c(c(O)c3ncccc13)C(=O)N(Cc1ccc(F)cc1)C2
60 to 1000 nM
CN(C)C(=O)c1cc(F)ccc1CN1Cc2c(c(O)c3ncccc3c2N(C)S(C)(=O)=O)C1=O
60 to 1000 nM
CS(=O)(=O)Nc1c2c(c(O)c3ncccc13)C(=O)N(Cc1ccc(F)cc1)C2
< 60 nM
CN(c1c2c(c(O)c3ncccc13)C(=O)N(Cc1ccc(Cl)cc1F)C2)S(C)(=O)=O
60 to 1000 nM
CN(c1c2c(c(O)c3ncccc13)C(=O)N(Cc1ccc(F)cc1S(=O)(=O)N(C)C)C2)S(C)(=O)=O
60 to 1000 nM
CN(c1c2c(c(O)c3ncccc13)C(=O)N(Cc1cccc(Cl)c1)C2)S(C)(=O)=O
60 to 1000 nM
CN(C)CCS(=O)(=O)N(C)c1c2c(c(O)c3ncccc13)C(=O)N(Cc1ccc(F)cc1)C2
< 60 nM
CN(c1c2c(c(O)c3ncccc13)C(=O)N(Cc1c(F)cc(F)cc1F)C2)S(C)(=O)=O
60 to 1000 nM
CN(C)c1cccc2c(S(=O)(=O)N(C)c3c4c(c(O)c5ncccc35)C(=O)N(Cc3ccc(F)cc3)C4)cccc12
60 to 1000 nM

// next item, IC50 requested
Exercise: Could you share which IC50 value was measured for CN(c1c2c(c(O)c3ncccc13)C(=O)N(Cc1ccc(F)cc1S(C)(=O)=O)C2)S(C)(=O)=O ?
Key: 60 to 1000 nM

====

Form: system (UniProtKB P04585), quantity (IC50), values below.

O=C1c2c(c(N3CCNS3(=O)=O)c3cccnc3c2O)CN1Cc1ccc(F)cc1
< 0.06 µM

Exercise: Could you share which IC50 value was measured for CC(C)S(=O)(=O)N(C)c1c2c(c(O)c3ncccc13)C(=O)N(Cc1ccc(F)cc1)C2 ?
Key: 0.06 to 1 µM

Exercise: Input CCN(c1c2c(c(O)c3ncccc13)C(=O)N(Cc1ccc(F)cc1)C2)S(C)(=O)=O
Key: < 0.06 µM

====

Here the recorded pIC50 is given for each entry.
TARGET SYSTEM: HIV integrase (Human immunodeficiency virus type 1 group M subtype B, UniProt P04585)
pIC50: −log10 of the molar value.

Some molecules with recorded pIC50:
COc1cc(F)ccc1CN1Cc2c(c(O)c3ncccc3c2N(C)S(C)(=O)=O)C1=O
6.00 to 7.22
CN(c1c2c(c(O)c3ncccc13)C(=O)N(Cc1ccc(F)c(Cl)c1F)C2)S(C)(=O)=O
6.00 to 7.22
CNC(=O)c1cc(F)ccc1CN1Cc2c(c(O)c3ncccc3c2N(C)S(C)(=O)=O)C1=O
6.00 to 7.22
CN(c1c2c(c(O)c3ncccc13)C(=O)N(Cc1c(F)ccc(Cl)c1F)C2)S(C)(=O)=O
6.00 to 7.22
CN(c1c2c(c(O)c3ncccc13)C(=O)N(Cc1ccc(F)cc1)C2)S(N)(=O)=O
> 7.22

Exercise: Could you share which pIC50 value was measured for O=C1c2c(c(N3C(=O)CCC3=O)c3cccnc3c2O)CN1Cc1ccc(F)cc1 ?
Key: > 7.22

Exercise: Input CCOC(=O)N(C)c1c2c(c(O)c3ncccc13)C(=O)N(Cc1ccc(F)cc1)C2
Key: > 7.22

Exercise: Input CN(c1c2c(c(O)c3ncccc13)C(=O)N(Cc1ccc(F)cn1)C2)S(C)(=O)=O
Key: 6.00 to 7.22

Exercise: Input CN(c1c2c(c(O)c3ncccc13)C(=O)N(Cc1ccc(F)cc1)C2)S(=O)(=O)CC(F)(F)F
Key: > 7.22

Exercise: Input CCOC(=O)N(C)c1c2c(c(O)c3ncccc13)C(=O)N(Cc1ccc(F)cc1)C2C (centres unmarked)
Key: 6.00 to 7.22

Exercise: Input CN(c1c2c(c(O)c3ncccc13)C(=O)N(Cc1ccccn1)C2)S(C)(=O)=O
Key: 6.00 to 7.22

Exercise: Input CN(c1c2c(c(O)c3ncccc13)C(=O)N(Cc1c(F)cccc1F)C2)S(C)(=O)=O
Key: 6.00 to 7.22

Exercise: Input CN(c1c2c(c(O)c3ncccc13)C(=O)N(Cc1ccncc1)C2)S(C)(=O)=O
Key: < 6.00

Exercise: Input CN(c1c2c(c(O)c3ncccc13)C(=O)N(Cc1ccc(Cl)cc1)C2)S(C)(=O)=O
Key: 6.00 to 7.22
